assay: in vitro; conditions: human, wild-type HepG2 cells (ATCC)
Please provide measured CC50 for the entries that follow.

stdin: Recorded CC50 of COc1cccc(CN2CCC3(CC2)NCCc2c3[nH]c3ccccc23)c1 , please.
stdout: > 24.8 µM

stdin: Recorded CC50 of O=[N+]([O-])c1c(Nc2ccccc2)cc(Cl)c2nonc12 , please.
stdout: > 20 µM

stdin: Recorded CC50 of Cc1ccc(Nc2nc3nonc3nc2NC(C)C)cc1C , please.
stdout: 11.4 µM

stdin: Recorded CC50 of CCOC(=O)c1cccc(-n2cc(Nc3nnnn3-c3ccccc3)cn2)c1 , please.
stdout: > 24.8 µM

stdin: Recorded CC50 of O=S(=O)(Nc1nccs1)c1ccc(NC(=S)Nc2ccc(F)cc2)cc1 , please.
stdout: > 24.8 µM
